Origin of measurements: patent US12617779B2

Measured Production rate of Alvocidib accompanies every entry in the list below.
- Protocol summary: Evaluation of conversion rate to active form in buffer solution (Experimental Example 1)
- Type: physicochemical
- Study conditions: pH6.0, 3 hr, 37° C., 25 umol/L in buffer solution
Counter-ions that a name gives are not always drawn.
Just the number in %, nothing appended.

Recorded Production rate of Alvocidib, per entry:
Molecule | Production rate of Alvocidib / %
CC(C)N(CC1CCCCN1)C(=O)Oc1cc(O)c2c(=O)cc(-c3ccccc3Cl)oc2c1[C@H]1CCN(C)C[C@H]1O (stereo partly shown) [Example 10] | 19.8
CCN(CC1CCCCN1)C(=O)Oc1cc(O)c2c(=O)cc(-c3ccccc3Cl)oc2c1[C@H]1CCN(C)C[C@H]1O (stereo partly shown) [Example 7, dihydrochloride] | 16.6
CN1CC[C@H](c2c(OC(=O)N(CCC(F)(F)F)CC3CCCCN3)cc(O)c3c(=O)cc(-c4ccccc4Cl)oc23)[C@H](O)C1 (stereo partly shown) [Example 13] | 42.5

Requested field: Production rate of Alvocidib. Item: CN1CC[C@H](c2c(OC(=O)N(CCF)CC3CCCCN3)cc(O)c3c(=O)cc(-c4ccccc4Cl)oc23)[C@H](O)C1 (stereo partly shown) [Example 11]
39.4
